In this section, each of the compounds is paired with its reported growth.
System: SNB-75 CNS
Experiment: NCI-60 one-dose screen, 48 h (100 = growth as untreated, 0 = no growth, -100 = all killed)
Details: 10 µM unless noted
About 83,000 compounds went through this panel and 20% of them were active in at least one assay; those are over-represented in the sample as a whole.

COMPOUND: CC(=O)Nc1ccc(/C=C2\SC(=S)N(/C=C(\C(C)=O)C(N)=O)C2=O)cc1
growth / %: 82.4
//
COMPOUND: NC(=S)N/N=C/c1ccc(OC(=O)COc2ccccc2)cn1
growth / %: 59.3
//
COMPOUND: CC(C)c1ccccc1NC(=O)N1CCC(C(C)C)CC1
growth / %: 89.3
//
COMPOUND: COc1cc(CC#N)c([N+](=O)[O-])cc1OC
growth / %: 107
//
COMPOUND: COC1OC(COC(C)=O)C(OC(C)=O)C(OC(C)=O)C1OC(C)=O (stereo not drawn)
growth / %: 95.7
//
COMPOUND: Nc1ccccc1SC1CC(=O)N(c2ccc(Cl)c(Cl)c2)C1=O (stereo not drawn)
growth / %: 79.9
//
COMPOUND: CCNC(=O)Oc1ccc[nH]c1=O
growth / %: 85.3
//
COMPOUND: NNc1ncnc2nc[nH]c12
growth / %: 89.3
//
COMPOUND: OCCNc1ccccc1
growth / %: 91.3
//
COMPOUND: CSCCC(NC(=O)C(Cl)Cl)C(=O)O (stereo not drawn)
growth / %: 85.6
//
COMPOUND: COc1ccc2c(c1)Nc1ccccc1S2
growth / %: 108
//
COMPOUND: CCOC(=O)CNC
growth / %: 83.4
//
COMPOUND: C[n+]1c(/C=C\C=C\N2CCCCC2)sc2ccccc21
growth / %: 14.4
//
COMPOUND: CC1CCC(C)(C)c2ccccc21 (stereo not drawn)
growth / %: 82.9
//
COMPOUND: CC1CN(CCO)CC(C)O1 (stereo not drawn)
growth / %: 96.5
//
COMPOUND: CCOC(=O)c1ccc(C(C)(C)C)cc1
growth / %: 102
//
COMPOUND: COC(CCCl)c1ccc(Cl)cc1 (stereo not drawn)
growth / %: 84.4
//
COMPOUND: CCc1ccccc1C(=O)N(CC)CC
growth / %: 90.6
//
COMPOUND: Cc1cc(Nc2ccc3c(c2)OCO3)c2cc3c(cc2n1)OCO3
growth / %: 25.6
//
COMPOUND: O=C(NCc1ccccc1)/C(=C/c1ccccc1)NC(=O)c1ccccc1
growth / %: 98.1
//
COMPOUND: CCOC(=O)Nc1nccs1
growth / %: 111
//
COMPOUND: O=c1cc(C(F)(F)F)[nH]c(=S)[nH]1
growth / %: 102
//
COMPOUND: C#CC(O)c1ccccc1 (stereo not drawn)
growth / %: 103
//
COMPOUND: O=[N+]([O-])c1c(O)c(CNCCCO)cc(CNCCCO)c1O
growth / %: 91.2
//
COMPOUND: C/C(=N\Nc1ccc([N+](=O)[O-])cc1[N+](=O)[O-])c1ccc(Br)cc1
growth / %: 104
//
COMPOUND: C(=C\c1ccncc1)/c1ccncc1
growth / %: 89.6
//
COMPOUND: CC(c1ccccc1)N1C(=O)CSC1=S (stereo not drawn)
growth / %: 19.9
//
COMPOUND: C=CCOc1ccc(Cl)cc1Cl
growth / %: 90.3

====

Test system: SF-295 CNS
Experiment: NCI-60 one-dose screen, 48 h
Details: 10 µM unless noted
Method: Cells are grown in 96 well plates and exposed to the test compound for 48 hours. Compounds are tested at a single concentration, which is 10^-5 M for most compounds. The reported endpoint is percent growth (GI% or GIPRCNT), where numbers from 0 - 100% represent growth inhibition, and numbers from -100% - 0 represent cell death. For example, a value of 40 represents 60% growth inhibition. A value of 0 means no net growth occurred over the course of the experiment. […]
About 83,000 compounds went through this panel and 20% of them were active in at least one assay; those are over-represented in the sample as a whole. The source made the active and inactive calls. The calls were made as follows: active = growth percent below 10; inactive = the rest.
Outcomes: active, inactive

COMPOUND: CCC1CCC(C)NC1 (stereo unspecified)
ANSWER_LABEL: inactive
--
COMPOUND: COc1cccc2c1Cc1ccccc1-2
ANSWER_LABEL: inactive
--
COMPOUND: O=C1C=CC(=O)C2=C1CCCC2
ANSWER_LABEL: inactive
--
COMPOUND: c1ccc(Oc2c3ccccc3nc3ccccc23)cc1
ANSWER_LABEL: active
--
COMPOUND: O=C(O)CSCC(=O)Nc1cc(C(F)(F)F)ccc1Cl
ANSWER_LABEL: inactive
--
COMPOUND: N#Cc1ccc2nc[nH]c2c1
ANSWER_LABEL: inactive
--
COMPOUND: Cn1c(=O)[nH]c2ccccc2c1=O
ANSWER_LABEL: inactive
--
COMPOUND: Cc1ccc(S(=O)(=O)CCCl)cc1
ANSWER_LABEL: inactive
--
COMPOUND: O=S(=O)(O)c1ccc(O)c(C2CCCCC2)c1
ANSWER_LABEL: inactive
--
COMPOUND: Cc1cc(Cl)cc(Cc2cc(Cl)cc(C)c2O)c1O
ANSWER_LABEL: inactive
--
COMPOUND: CC(=O)NC(CCc1ccc(Cl)c(Cl)c1)c1cccc(O)c(=O)c1 (stereo unspecified)
ANSWER_LABEL: active

====

System: SF-268 CNS
Test: NCI-60 one-dose screen, 48 h (100 = growth as untreated, 0 = no growth, -100 = all killed)
Conditions: 10 µM unless noted
About 83,000 compounds went through this panel and 20% of them were active in at least one assay; those are over-represented in the sample as a whole.

COMPOUND: N#C/C(=C\NC(=S)N=Nc1c(O)[nH]c2ccccc12)c1nc2ccccc2s1
TARGET: SF-268 CNS
UNIT_LABEL: %
growth: 102
//
COMPOUND: OCCNc1ccccc1
TARGET: SF-268 CNS
UNIT_LABEL: %
growth: 97.2
//
COMPOUND: C=CC1=NC(C)(C)CC(C)O1 (configuration not stated)
TARGET: SF-268 CNS
UNIT_LABEL: %
growth: 109
//
COMPOUND: CCCCCC(=O)OCCC1CCCCC1
TARGET: SF-268 CNS
UNIT_LABEL: %
growth: 93
//
COMPOUND: S=c1nc(-c2ccccn2)c(-c2ccccn2)n[nH]1
TARGET: SF-268 CNS
UNIT_LABEL: %
growth: 102
//
COMPOUND: Nc1ccc(F)c(Cl)c1F
TARGET: SF-268 CNS
UNIT_LABEL: %
growth: 106
//
COMPOUND: c1cc(CNCCNCc2ccncc2)ccn1
TARGET: SF-268 CNS
UNIT_LABEL: %
growth: 104

====

Reported growth by item:
Tested on: UO-31 renal
Test: NCI-60 one-dose screen, 48 h (100 = growth as untreated, 0 = no growth, -100 = all killed)
Details: 10 µM unless noted
Description: Growth inhibition of the UO-31 human tumor cell line is measured as a screen for anti-cancer activity. Cells are grown in 96 well plates and exposed to the test compound for 48 hours. Compounds are tested at a single concentration, which is 10^-5 M for most compounds. The reported endpoint is percent growth (GI% or GIPRCNT), where numbers from 0 - 100% represent growth inhibition, and numbers from -100% - 0 represent cell death. For example, a value of 40 represents 60% growth inhibition. […]
The panel holds about 83,000 compounds, 20% with a hit somewhere; the sample as a whole holds those more often. Active and inactive are the calls of the source. The calls were made as follows: active = growth percent below 10; inactive = the rest.

COMPOUND: COc1ccc(C2CC(c3ccccc3)=Nc3ccccc3S2)cc1 (configuration not stated)
TARGET: UO-31 renal
growth: 57.5% (inactive)

COMPOUND: CCOC(=O)C(=O)CC(=O)c1ccccc1
TARGET: UO-31 renal
growth: 85.3% (inactive)

COMPOUND: Cc1ccc2nc(N)nnc2c1
TARGET: UO-31 renal
growth: 87.5% (inactive)

COMPOUND: CC(=O)OC/C(C)=C\CC(C)COC(C)=O (configuration not stated)
TARGET: UO-31 renal
growth: 87.7% (inactive)

COMPOUND: Nc1ccccc1SC1CC(=O)N(c2ccc(Cl)c(Cl)c2)C1=O (configuration not stated)
TARGET: UO-31 renal
growth: 72.6% (inactive)

COMPOUND: CN(C)c1ccc(O)c2c1CC1CC3C(N(C)C)C(=O)C(C(N)=O)=C(O)C3(O)C(=O)C1=C2O (configuration not stated)
TARGET: UO-31 renal
growth: 23.6% (inactive)

COMPOUND: Cc1ccc(S(=O)(=O)NC(=O)NCCSSCCNC(=O)NS(=O)(=O)c2ccc(C)cc2)cc1
TARGET: UO-31 renal
growth: 90.3% (inactive)

COMPOUND: NC(CCl)=NCC12CC3CC(CC(C3)C1)C2
TARGET: UO-31 renal
growth: -98.5% (active)

COMPOUND: CC(=O)N(C)N=Nc1ccc(C)cc1
TARGET: UO-31 renal
growth: 81.6% (inactive)

COMPOUND: NCCCN1CCCC1=O
TARGET: UO-31 renal
growth: 95.7% (inactive)

COMPOUND: CC(=O)N=c1ccc2nc3c(cc(N)c4ccccc43)oc-2c1
TARGET: UO-31 renal
growth: -43.9% (active)

COMPOUND: COC1C(=O)CCC2(CO2)C1(O)C1(C)OC1CCC(C)C (configuration not stated)
TARGET: UO-31 renal
growth: 48.7% (inactive)

Source of measurements: PubChem BioAssay (NCI)
